Target: SMO (Mus musculus, UniProt P56726)
Construct: endogenous in cells; host or cells: C3H10T1/2 (ATCC #CCL-226)
Sequence (P56726 33-793): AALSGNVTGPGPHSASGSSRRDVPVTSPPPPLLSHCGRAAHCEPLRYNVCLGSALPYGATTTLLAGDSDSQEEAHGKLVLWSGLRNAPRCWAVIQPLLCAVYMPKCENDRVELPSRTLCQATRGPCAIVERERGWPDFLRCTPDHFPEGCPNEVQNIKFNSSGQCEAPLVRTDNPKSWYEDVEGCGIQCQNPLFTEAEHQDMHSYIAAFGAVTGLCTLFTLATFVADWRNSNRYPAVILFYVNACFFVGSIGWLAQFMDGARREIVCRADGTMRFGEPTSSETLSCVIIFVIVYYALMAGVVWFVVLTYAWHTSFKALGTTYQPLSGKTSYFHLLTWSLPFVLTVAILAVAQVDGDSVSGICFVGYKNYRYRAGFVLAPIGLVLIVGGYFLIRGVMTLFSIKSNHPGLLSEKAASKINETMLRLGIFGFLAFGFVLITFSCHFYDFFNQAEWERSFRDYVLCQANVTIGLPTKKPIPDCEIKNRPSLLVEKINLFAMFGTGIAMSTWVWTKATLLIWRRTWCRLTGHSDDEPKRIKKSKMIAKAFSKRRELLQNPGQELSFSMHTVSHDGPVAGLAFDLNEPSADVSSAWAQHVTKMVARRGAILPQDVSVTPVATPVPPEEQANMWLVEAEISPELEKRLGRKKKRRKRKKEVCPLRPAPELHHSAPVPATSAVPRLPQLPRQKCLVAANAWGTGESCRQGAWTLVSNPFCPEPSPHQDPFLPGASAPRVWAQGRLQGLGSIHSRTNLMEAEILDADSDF
Assay: Smoothened (SMO)/Sonic Hedgehog (SHh) Transient Transcriptional Activation Assay (Gli-luciferase reporter in C3H10T1/2 cells)
Assay type: cell-based, murine
Settings: C3H 10T1/2, 2 uM test compound, SHh 250 ng/ml, 20 hrs, read-out: SMO % inhibition at 2 uM
parameter_measured: inhibition at 2 µM (%)

Cc1ccc2[nH]c(C3CCCC(NC(=O)c4ccc5c(c4)OCCO5)C3)nc2c1 (centres unmarked)
103
COc1cc(OC)cc(C(=O)NC2CCCC(c3nc4ccc(C(F)(F)F)cc4[nH]3)C2)c1 (centres unmarked)
105
CN(C)Cc1ccc2nc([C@H]3CCC[C@@H](NC(=O)c4ccc5c(c4)OCCO5)C3)[nH]c2c1
107
N#Cc1ccc2nc(C3CCCC(NC(=O)c4ccc5c(c4)OCCO5)C3)[nH]c2c1 (centres unmarked)
100
COc1cc(OC)cc(C(=O)NC2CCCC(c3nc4ccc(Br)cc4[nH]3)C2)c1 (centres unmarked)
103
COc1cc(OC)cc(C(=O)NC2CCCC(c3nc4ccc(C)cc4[nH]3)C2)c1 (centres unmarked)
102
COc1cc(OC)cc(C(=O)NC2CCCC(c3nc4ccc(NS(C)(=O)=O)cc4[nH]3)C2)c1 (centres unmarked)
86
COc1cc(OC)cc(C(=O)NC2CCCC(c3nc4cc(C)ccc4n3C)C2)c1 (centres unmarked)
84
